Target: Androgen Receptor (Homo sapiens, UniProt P10275)
Construct: endogenous in cells; host or cells: VCaP cells
Sequence (P10275 1-920): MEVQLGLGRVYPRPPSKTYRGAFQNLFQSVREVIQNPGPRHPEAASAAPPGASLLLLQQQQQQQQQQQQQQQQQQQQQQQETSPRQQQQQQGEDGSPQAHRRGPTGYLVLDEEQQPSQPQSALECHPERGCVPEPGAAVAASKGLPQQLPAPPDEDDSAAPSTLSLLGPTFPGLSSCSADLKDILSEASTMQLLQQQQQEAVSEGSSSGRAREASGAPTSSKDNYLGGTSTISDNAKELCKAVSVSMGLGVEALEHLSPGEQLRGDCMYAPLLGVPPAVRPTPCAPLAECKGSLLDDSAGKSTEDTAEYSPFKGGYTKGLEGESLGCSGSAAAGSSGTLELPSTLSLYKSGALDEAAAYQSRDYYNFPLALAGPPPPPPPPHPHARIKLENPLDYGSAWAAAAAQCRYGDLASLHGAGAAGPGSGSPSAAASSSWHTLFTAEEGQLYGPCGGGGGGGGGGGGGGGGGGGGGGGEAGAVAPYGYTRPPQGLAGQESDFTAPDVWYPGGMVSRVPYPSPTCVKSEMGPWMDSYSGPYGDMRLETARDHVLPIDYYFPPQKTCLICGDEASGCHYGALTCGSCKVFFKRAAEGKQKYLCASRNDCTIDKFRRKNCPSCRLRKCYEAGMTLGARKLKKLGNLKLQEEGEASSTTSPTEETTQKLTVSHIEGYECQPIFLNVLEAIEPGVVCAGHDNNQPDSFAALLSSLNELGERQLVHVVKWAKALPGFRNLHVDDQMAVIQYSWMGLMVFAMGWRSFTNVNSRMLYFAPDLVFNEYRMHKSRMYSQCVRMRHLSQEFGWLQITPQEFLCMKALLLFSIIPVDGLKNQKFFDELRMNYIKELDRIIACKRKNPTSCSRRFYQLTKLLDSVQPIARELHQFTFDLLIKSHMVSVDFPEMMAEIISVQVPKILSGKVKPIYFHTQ
Experiment: Androgen Receptor ELISA assay (PathScan AR ELISA) in VCaP cells: AR degradation, Dmax and DC50
Type: cell-based
Conditions: read-out: VCaP DC50; VCaP cells; Table 36
Exercise: state measured DC50 for each of the molecules provided.

Query string: Which measured DC50 value corresponds to Cc1ncsc1-c1ccc(CNC(=O)[C@@H]2C[C@@H](O)CN2C(=O)[C@H](C(C)C)n2cc(OC3CCN(c4ccc(-c5ccc(N6C(=S)N(c7ccc(C#N)c(C(F)(F)F)c7)C(=O)C6(C)C)cc5)cn4)CC3)cn2)cc1 ?
Result string: > 501 nM

Query string: Which measured DC50 value corresponds to Cc1ncsc1-c1ccc(CNC(=O)[C@@H]2C[C@@H](O)CN2C(=O)[C@H](C(C)C)n2cc(Oc3cccc(OCCCCCOc4ccc(N5C(=S)N(c6ccc(C#N)c(C(F)(F)F)c6)C(=O)C5(C)C)cc4)c3)cn2)cc1 ?
Result string: > 501 nM

Query string: Which measured DC50 value corresponds to Cc1ncsc1-c1ccc([C@H](CO)NC(=O)[C@@H]2C[C@@H](O)CN2C(=O)[C@@H](NC(=O)CN2C3CCC2CN(CCCCc2ccc(C(=O)N[C@H]4C(C)(C)[C@H](Oc5ccc(C#N)c(Cl)c5)C4(C)C)cc2)C3)C(C)(C)C)cc1 ?
Result string: < 50 nM

Query string: Which measured DC50 value corresponds to Cc1ncsc1-c1ccc([C@H](C)NC(=O)[C@@H]2CC3CN2C(=O)C(C(C)(C)C)NC(=O)COCCCOCCC(CCOc2ccc(N4C(=S)N(c5ccc(C#N)c(C(F)(F)F)c5)C(=O)C4(C)C)cc2)OC(=O)CC/C=C/CCC(=O)O3)cc1 (stereo partly shown) [Example 619] ?
Result string: > 501 nM
